Let's go through some recorded AC50 values for D(3) dopamine receptor (Homo sapiens) together.
Record the value in µM, omitting the unit from your answer.

[
  {
    "Chemical smiles": "CN1CCN(C2=Nc3ccccc3Sc3ccc(Cl)cc32)CC1",
    "Assay metric": "AC50",
    "Value": 0.0061
  }
]

Q. Please report AC50 for the following molecule: CC1=C(/C=C/C(C)=C/C=C/C(C)=C/C=C/C=C(C)/C=C/C=C(C)/C=C/C2=C(C)CCCC2(C)C)C(C)(C)CCC1
A. 20.8

Q. Look up and state reported AC50 for CC(C)(C)CC(C)(C)c1ccc(O)c(Cc2ccc(Cl)cc2Cl)c1
A. 1.48

Q. Supply recorded AC50 for Nc1ccc2cc3ccc(N)cc3nc2c1 here.
A. 22.9

All values here come from ChEMBL document CHEMBL5291721.
